- Tested on: SK-MEL-28
- Experiment Summary: NCI tumour cell line growth inhibition, 48 h
Activity calls are given as the source filed them. Rule as the data show it: active = GI50 up to about 1.1 µM and inactive = higher.
Form field: GI50 (one value per entry).

{"Compound": "C1=N\\CCNCCNCC/N=C\\c2ccc(cc2)OCc2cccc(n2)COc2ccc/1cc2", "GI50": "> 100 µM (inactive)"}
{"Compound": "CCn1c(C)nc([N+](=O)[O-])c1Sc1ncc[nH]1", "GI50": "31 µM (inactive)"}
{"Compound": "Cc1ccc(S(=O)(=O)N/N=C2\\CCCCCCCCCCC2CN(C)C)cc1 (configuration not stated)", "GI50": "14.8 µM (inactive)"}
{"Compound": "O=c1oc2ccccc2[n+]([O-])c1-c1ccccc1", "GI50": "> 100 µM (inactive)"}
{"Compound": "CC1CC(C[N+](=O)[O-])CC2(C1)OCCO2 (configuration not stated)", "GI50": "> 100 µM (inactive)"}
{"Compound": "CC(C)C1=CC23CCC4C(C)(C(=O)O)CCCC4(C)C2CC1C(C(=O)O)C3C(=O)O (configuration not stated)", "GI50": "> 100 µM (inactive)"}
{"Compound": "c1ccc(COC2NCCN2Cc2ccccc2)cc1 (configuration not stated)", "GI50": "> 100 µM (inactive)"}
{"Compound": "Cc1cccc(/N=C/C=C(\\Cl)c2ccc3ccccc3c2)c1", "GI50": "17.5 µM (inactive)"}
{"Compound": "C=CCc1cc(C=C(C#N)C#N)cc(OC)c1O", "GI50": "> 100 µM (inactive)"}
{"Compound": "Cc1c(C(=O)c2ccccc2)[n+]([O-])c2cc(Cl)c(Cl)cc2[n+]1[O-]", "GI50": "14.7 µM (inactive)"}
{"Compound": "Cn1ncc2c(Cl)ncnc21", "GI50": "> 100 µM (inactive)"}
{"Compound": "CC12CCC(CC1=O)C2(C)CCC(N)=O (configuration not stated)", "GI50": "> 100 µM (inactive)"}

----------
- Test system: SNB-78
- Experiment Summary: NCI tumour cell line growth inhibition, 48 h
Activity calls are given as the source filed them. Rule as the data show it: active = GI50 up to about 1.1 µM and inactive = higher.
Reported GI50 by item:
Metric: GI50

{"Compound": "COc1cccc2c1C(=O)C=CC2=O", "Result": "4.54 µM (inactive)"}
{"Compound": "c1ccc2c3c([nH]c2c1)C1C2CCCCN2C(c2ccncc2)N1CC3 (stereo not given)", "Result": "42.8 µM (inactive)"}
{"Compound": "O=C(CC(=O)n1nc(-c2ccccc2)c(/N=N/c2ccc([N+](=O)[O-])cc2)c1-c1ccccc1)Nc1ccc(Cl)cc1", "Result": "88.5 µM (inactive)"}
{"Compound": "O=C(Nc1c(Cl)cc([N+](=O)[O-])cc1Cl)C(=O)C(C(=O)c1ccncc1)C1OC(=O)c2ccccc21 (stereo not given)", "Result": "> 100 µM (inactive)"}
{"Compound": "CCn1c(C)nn2c(=O)c3ccccc3nc2c1=O", "Result": "> 100 µM (inactive)"}

----------
- System: NCI-H23
- Experiment Summary: NCI tumour cell line growth inhibition, 48 h
The source made the active and inactive calls. No stated cut-off is given here; in the data, active = GI50 up to about 1.1 µM and inactive = higher.
Classes used: yes (1) (active), no (0) (inactive)

{"Compound": "O=[N+]([O-])c1ccc(Cl)c(C2CC(c3cccc4ccccc34)=Nc3ccccc3S2)c1 (centres undefined)", "Discrete Label": "no (0)"}
{"Compound": "O=c1[nH]c2[nH]c(-c3ccc(Br)cc3)cc2c2ccccc12", "Discrete Label": "no (0)"}
{"Compound": "COc1ccc2oc(C(=O)N3CC(CCl)c4ccc(N)cc43)cc2c1 (centres undefined)", "Discrete Label": "yes (1)"}
{"Compound": "CCCCCCCC(=O)OCC1OC(OC)C(NC(=O)N(CCCl)N=O)C(O)C1O (centres undefined)", "Discrete Label": "no (0)"}
{"Compound": "NC(=O)CC1OC(=O)Cc2cc3c(c(O)c21)C(=O)c1c(O)cccc1C3=O (centres undefined)", "Discrete Label": "no (0)"}
{"Compound": "COC(=O)C1=C(O)C(C(=O)OC)[C@]2(O)[C@H](C(=O)OC)[C@H]1C[C@@H](c1ccc(OC)c(OC)c1)[C@H]2C(=O)OC (some centres undefined)", "Discrete Label": "no (0)"}
{"Compound": "O=C(c1ccc(Cl)cc1)N(C(=S)N1CCN(c2ccccc2)CC1)C1CCCCC1", "Discrete Label": "no (0)"}
{"Compound": "N=C(N)N/N=C/c1c(-c2cc([N+](=O)[O-])c(Cl)cc2Cl)nc2n1CCS2", "Discrete Label": "no (0)"}
{"Compound": "CC/C=C\\C/C=C\\C/C=C\\CCCCCCCC(=O)OC [METHYL LINOLENATE]", "Discrete Label": "no (0)"}
{"Compound": "O=[N+]([O-])c1cccc2nc3ccccc3c(NCCCCCNc3c4ccccc4nc4cccc([N+](=O)[O-])c34)c12", "Discrete Label": "yes (1)"}
{"Compound": "COc1ccc(NC(=O)C(=O)c2c(O)c3ccc(O)cc3oc2=O)c([N+](=O)[O-])c1", "Discrete Label": "no (0)"}
{"Compound": "COC(=O)c1ccccc1N(C(=O)c1ccccc1)c1ccccc1C", "Discrete Label": "no (0)"}
{"Compound": "COc1cc(Cl)c(CC(=O)c2c[nH]c3ccccc23)cc1OC", "Discrete Label": "no (0)"}
{"Compound": "COc1ccc2cc3c4cc5c(cc4cc[n+]3cc2c1OC)OCO5", "Discrete Label": "no (0)"}
{"Compound": "O=C1CCN2C(=N1)Sc1ccccc12", "Discrete Label": "no (0)"}
{"Compound": "Cc1c2cc[n+](C)cc2c(C)c2c1[nH]c1ccc(OCC(F)(F)F)cc12", "Discrete Label": "no (0)"}
{"Compound": "COc1ccc2[nH]cc(CCNC(=O)[C@](O)(Cc3cn(C)c4ccccc34)[C@@]3(O)OCC(O)C3O)c2c1 (some centres undefined)", "Discrete Label": "no (0)"}
{"Compound": "O=C(CC(=O)n1nc(-c2ccccc2)c(/N=N/c2ccc([N+](=O)[O-])cc2)c1-c1ccccc1)Nc1ccc(Cl)cc1", "Discrete Label": "no (0)"}
{"Compound": "COC(=O)NCCc1n[nH]c2c1C(=O)C=C(Nc1ccccc1)C2=O", "Discrete Label": "no (0)"}

----------
- System: MDA-MB-231
- Experiment Summary: NCI tumour cell line growth inhibition, 48 h
Active and inactive are the calls of the source. Rule as the data show it: active = GI50 up to about 1.1 µM and inactive = higher.
Classes used: T = active, F = inactive

{"Molecule": "CCOC(=O)C(C(=O)OCC)=C1SC(=N\\c2ccccc2)/C(=N/c2ccccc2)N1c1ccccc1", "Measurement Target": "MDA-MB-231", "Discrete Label": "F"}
{"Molecule": "COc1cc2c(cc1O)-c1c(OC)c(O)cc3c1C(C2)N(C)CC3 (configuration not stated)", "Measurement Target": "MDA-MB-231", "Discrete Label": "F"}
{"Molecule": "CCOC(=O)C1=C(N2CCCC2)NC(=O)CC1=O", "Measurement Target": "MDA-MB-231", "Discrete Label": "F"}
{"Molecule": "CCON=C1C(C)(C)C(C)(C)C(C)(C)C1(C)C", "Measurement Target": "MDA-MB-231", "Discrete Label": "F"}
{"Molecule": "CC(C)(Cl)C(Br)CC/C(=C/CBr)CBr.CC(C)(Cl)C(Br)CC/C(=C\\CBr)CBr (configuration not stated)", "Measurement Target": "MDA-MB-231", "Discrete Label": "F"}
{"Molecule": "NNC(=O)CC(=O)Nc1ccccc1Cl", "Measurement Target": "MDA-MB-231", "Discrete Label": "F"}
{"Molecule": "COc1ccc(-c2cc(=O)c3c(OC)c(OC)c(OC)c(OC)c3o2)cc1OC", "Measurement Target": "MDA-MB-231", "Discrete Label": "F"}
{"Molecule": "OC(CC(O)(C(F)(F)F)C(F)(F)F)c1ccc(C(O)CC(O)(C(F)(F)F)C(F)(F)F)cc1 (configuration not stated)", "Measurement Target": "MDA-MB-231", "Discrete Label": "F"}
{"Molecule": "O=C1CCc2c(sc3ncnc(Nc4cccc(Br)c4)c23)C1", "Measurement Target": "MDA-MB-231", "Discrete Label": "F"}
{"Molecule": "COc1cccc2c1C(=O)C=CC2=O", "Measurement Target": "MDA-MB-231", "Discrete Label": "F"}
{"Molecule": "C=CC[C@@]1(OC(C)=O)C(=O)C(=O)OC1C1COC(C)(C)O1 (some centres not stated)", "Measurement Target": "MDA-MB-231", "Discrete Label": "F"}
{"Molecule": "COc1cc2cc(C(=O)N3CC(CCl)c4ccc(NO)cc43)[nH]c2c(OC)c1OC (configuration not stated)", "Measurement Target": "MDA-MB-231", "Discrete Label": "T"}
{"Molecule": "O=c1[nH]c2cc([N+](=O)[O-])c(Nc3c4ccccc4nc4ccccc34)c([N+](=O)[O-])c2[nH]1", "Measurement Target": "MDA-MB-231", "Discrete Label": "F"}
{"Molecule": "C[n+]1c2ccccc2n2c3ccccc3c(NCCCN3CCOCC3)c(C#N)c21", "Measurement Target": "MDA-MB-231", "Discrete Label": "T"}
{"Molecule": "CN1CCC23c4c5ccc(Oc6nnnn6-c6ccccc6)c4OC2c2[nH]c4ccccc4c2CC3(O)C1C5 (configuration not stated)", "Measurement Target": "MDA-MB-231", "Discrete Label": "F"}
{"Molecule": "CC(C)C(OC(=O)c1ccc(NCC2=CC(=O)C=CC2=O)cc1)C(C)C", "Measurement Target": "MDA-MB-231", "Discrete Label": "F"}
{"Molecule": "CC1CC(N)=Nc2ccccc2N1Cc1ccccc1 (configuration not stated)", "Measurement Target": "MDA-MB-231", "Discrete Label": "F"}
{"Molecule": "CN(C(=O)Cc1cc(Cl)c(Cl)cc1NC(=O)CN)[C@H]1CCCC[C@@H]1N1CCCC1", "Measurement Target": "MDA-MB-231", "Discrete Label": "F"}
{"Molecule": "S=c1nc(N/N=C/c2cccs2)c2cn[nH]c2[nH]1", "Measurement Target": "MDA-MB-231", "Discrete Label": "F"}
{"Molecule": "COc1ccc2cc3c4cc5c(cc4cc[n+]3cc2c1OC)OCO5", "Measurement Target": "MDA-MB-231", "Discrete Label": "F"}
{"Molecule": "COc1ccc2oc(C(=O)N3CC(CCl)c4ccc(N)cc43)cc2c1 (configuration not stated)", "Measurement Target": "MDA-MB-231", "Discrete Label": "T"}
{"Molecule": "FC(F)(F)c1ccc2nc(Sc3ccccn3)cnc2c1", "Measurement Target": "MDA-MB-231", "Discrete Label": "F"}
